# MEASUREMENT TARGET: H1047R PIK3CA enzyme (Homo sapiens, UniProt P42336, H1047R)
# Sequence (P42336 whole entry H1047R): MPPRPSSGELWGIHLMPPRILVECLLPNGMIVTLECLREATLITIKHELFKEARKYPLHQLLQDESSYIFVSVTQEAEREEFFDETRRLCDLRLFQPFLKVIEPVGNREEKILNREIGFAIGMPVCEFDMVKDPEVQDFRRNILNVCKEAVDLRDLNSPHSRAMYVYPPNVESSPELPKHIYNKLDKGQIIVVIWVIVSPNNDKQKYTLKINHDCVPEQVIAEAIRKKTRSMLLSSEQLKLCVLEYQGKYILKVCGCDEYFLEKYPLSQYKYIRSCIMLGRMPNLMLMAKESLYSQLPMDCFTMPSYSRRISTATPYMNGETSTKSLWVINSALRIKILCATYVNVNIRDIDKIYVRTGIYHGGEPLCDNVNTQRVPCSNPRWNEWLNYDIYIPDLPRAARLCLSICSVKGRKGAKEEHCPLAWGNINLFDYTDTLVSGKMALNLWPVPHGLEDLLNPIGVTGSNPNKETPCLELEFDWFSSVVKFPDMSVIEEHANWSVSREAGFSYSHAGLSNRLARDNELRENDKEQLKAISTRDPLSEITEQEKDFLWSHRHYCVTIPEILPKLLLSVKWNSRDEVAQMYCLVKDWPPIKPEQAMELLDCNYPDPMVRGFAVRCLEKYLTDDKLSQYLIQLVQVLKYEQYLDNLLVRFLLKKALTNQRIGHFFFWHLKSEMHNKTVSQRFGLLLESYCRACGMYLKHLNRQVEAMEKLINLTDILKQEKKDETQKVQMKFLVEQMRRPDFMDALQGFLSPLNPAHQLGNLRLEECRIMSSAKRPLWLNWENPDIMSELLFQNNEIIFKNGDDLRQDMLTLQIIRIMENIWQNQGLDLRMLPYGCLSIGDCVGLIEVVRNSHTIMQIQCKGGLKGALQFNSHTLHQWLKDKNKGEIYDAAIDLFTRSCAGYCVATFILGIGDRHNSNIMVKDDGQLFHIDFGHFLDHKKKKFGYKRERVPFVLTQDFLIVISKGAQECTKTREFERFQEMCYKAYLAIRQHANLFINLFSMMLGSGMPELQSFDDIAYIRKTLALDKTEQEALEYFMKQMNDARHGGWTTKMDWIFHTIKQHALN
# Sequence (P27986 whole entry partner): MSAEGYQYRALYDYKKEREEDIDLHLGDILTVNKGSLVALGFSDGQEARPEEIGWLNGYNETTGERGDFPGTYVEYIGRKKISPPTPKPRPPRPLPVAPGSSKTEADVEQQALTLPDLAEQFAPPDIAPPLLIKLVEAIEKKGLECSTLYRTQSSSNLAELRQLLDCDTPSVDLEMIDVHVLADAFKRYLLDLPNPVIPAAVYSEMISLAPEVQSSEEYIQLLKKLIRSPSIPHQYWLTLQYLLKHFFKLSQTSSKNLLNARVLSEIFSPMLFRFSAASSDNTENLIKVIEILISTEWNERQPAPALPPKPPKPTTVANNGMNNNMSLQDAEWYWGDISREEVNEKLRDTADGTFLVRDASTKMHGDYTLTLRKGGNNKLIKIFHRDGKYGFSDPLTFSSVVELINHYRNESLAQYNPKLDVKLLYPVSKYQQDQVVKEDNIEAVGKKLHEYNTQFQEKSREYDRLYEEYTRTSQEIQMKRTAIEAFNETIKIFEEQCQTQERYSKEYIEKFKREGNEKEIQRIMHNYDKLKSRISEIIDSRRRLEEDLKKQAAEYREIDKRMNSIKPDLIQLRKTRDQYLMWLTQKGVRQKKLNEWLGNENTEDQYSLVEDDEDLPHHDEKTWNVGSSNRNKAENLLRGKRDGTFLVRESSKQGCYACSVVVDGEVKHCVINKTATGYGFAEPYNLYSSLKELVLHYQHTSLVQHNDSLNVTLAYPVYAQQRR
# METHOD DESCRIPTION: ADP-Glo Biochemical PIK3CA Kinase Assay
pIC50: −log10 of the molar value.
READOUT: pIC50

> print(dat)
                                   compound  readout  reported.measurement
1  Cc1ccccc1C1NC(=O)c2c(CO)ccc(NC(=O)c3csc4ccccc34)c21 (stereo not shown) [Compound I-224]    pIC50                ≥ 7.00
2  O=C(Nc1cc(-c2ccc(=O)n(C3CC3)c2)nc2c1[C@@H](c1cc(F)ccc1Cl)NC2=O)c1cc(F)cc(C(F)(F)F)c1 [Compound I-746]    pIC50          5.00 to 6.00
3  Cc1ccccc1C1NC(=O)c2c(Br)ccc(NC(=O)c3cc(F)cc(C(F)(F)F)c3)c21 (stereo not shown) [Compound I-279]    pIC50          6.30 to 7.00

Ask | Bench note: what pIC50 did COc1ncc(-c2cc(NC(=O)c3cc(F)cc(C(F)(F)F)c3)c3c(c2)C(=O)N[C@H]3c2cc(F)ccc2Cl)cn1 [Compound I-882] show?
Reply | ≥ 7.00

Ask | Bench note: what pIC50 did Cc1ccccc1C1NC(=O)c2cccc(NC(=O)c3csc4cncnc34)c21 (stereo not shown) [Compound I-63] show?
Reply | 4.00 to 5.00

----------
IC50: recorded values
# METHOD DESCRIPTION: cells
# CONDITION PARAMETERS: Homo sapiens, MCF-10A, read-out: MCF10A IC50

COMPOUND	IC50
O=C1N[C@H](c2cc(F)ccc2Cl)c2c(NC(=O)N3C[C@@](O)(C(F)(F)F)c4cc(F)ccc43)cc(-n3ccnn3)cc21 (single isomer, unassigned) [Compound I-2547]	< 1000 nM
O=C(Nc1cc(-c2nc3ncccc3[nH]2)cc2c1C(c1cc(F)ccc1Cl)NC2=O)c1cc(F)cc(C(F)(F)F)c1 (centres unmarked) [Compound I-1026]	< 1000 nM
CC(C)(O)c1cc(NC(=O)c2nsc3ccccc23)c2c(c1)C(=O)N[C@H]2c1cc(F)ccc1Cl [Compound I-192]	< 1000 nM
O=C(Nc1cc(-c2cscn2)cc2c1[C@H](c1cc(F)ccc1Cl)NC2=O)c1cc(F)cc(C(F)(F)F)c1 [Compound I-1084]	< 1000 nM

Ask | Bench note: what IC50 did COc1ccc(NC(=O)c2csc3ccccc23)c2c1C(=O)NC2c1ccccc1C (centres unmarked) [Compound I-35] show?
Reply | 1000 to 5000 nM

----------
pIC50: recorded values
# MEASUREMENT TARGET: H1047R PIK3CA enzyme (Homo sapiens, UniProt P42336, H1047R)
# METHOD DESCRIPTION: ADP-Glo Biochemical PIK3CA Kinase Assay
pIC50: −log10 of the molar value.

These solved cases illustrate the format of a correct answer.
COMPOUND	REPORTED MEASUREMENT
O=C1CCc2c(cccc2-c2cc(NC(=O)c3cc(F)cc(C(F)(F)F)c3)c3c(c2)C(=O)NC3c2cc(F)ccc2Cl)N1 (stereo not drawn)	≥ 7.00
Cc1nccn1-c1cc(NC(=O)N2C[C@@](O)(C(F)(F)F)c3cc(F)ccc32)c2c(c1)C(=O)N[C@@H]2c1cc(F)ccc1Cl (single isomer, unassigned)	≥ 7.00
CC(C)(C#N)n1cc(-c2cc(NC(=O)N3C[C@@](O)(C(F)(F)F)c4cc(F)ccc43)c3c(c2)C(=O)N[C@@H]3c2cc(F)ccc2Cl)cn1 (single isomer, unassigned)	≥ 7.00
O=C1NC(c2cc(F)ccc2Cl)c2c(NC(=O)N3CC(O)(c4scnc4C(F)(F)F)C3)cccc21 (stereo not drawn)	4.00 to 5.00

Ask | Bench note: what pIC50 did O=C(Nc1cc(-c2cnn3ccnc3c2)cc2c1C(c1cc(F)ccc1Cl)NC2=O)c1cc(F)cc(C(F)(F)F)c1 (stereo not drawn) show?
Reply | ≥ 7.00

Ask | Bench note: what pIC50 did Cc1ccccc1C1NC(=O)c2cccc(NC(=O)C34CCC(C3)c3ccccc34)c21 (stereo not drawn) show?
Reply | 5.00 to 6.00

Ask | Bench note: what pIC50 did O=C(Nc1cc(Br)cc2c1C(c1cc(F)ccc1Cl)NC2=O)c1cc(Cl)cc(Cl)c1 (stereo not drawn) show?
Reply | ≥ 7.00

Ask | Bench note: what pIC50 did O=C1NC(c2c(F)cccc2F)c2c(NC(=O)c3nsc4ccccc34)cccc21 (stereo not drawn) show?
Reply | 5.00 to 6.00

Ask | Bench note: what pIC50 did CC(C)[C@@]1(O)CN(C(=O)Nc2cccc3c2[C@H](c2cc(F)ccc2Cl)NC3=O)c2ccc(F)cc21 (single isomer, unassigned) show?
Reply | 5.00 to 6.00

Ask | Bench note: what pIC50 did O=C(Cc1c(F)ccc(F)c1F)Nc1cc(Br)cc2c1C(c1cc(F)ccc1Cl)NC2=O (stereo not drawn) show?
Reply | 4.00 to 5.00

Ask | Bench note: what pIC50 did O=C1N[C@H](c2cc(F)ccc2Cl)c2c(NC(=O)N3C[C@](O)(C(F)(F)F)c4cc(F)ccc43)cc(Cl)nc21 (single isomer, unassigned) show?
Reply | 5.00 to 6.00

Ask | Bench note: what pIC50 did O=C(Nc1cc(Br)cc2c1[C@H](c1c(F)cccc1Cl)NC2=O)c1cc(F)cc(C(F)(F)F)c1 show?
Reply | ≥ 7.00

Ask | Bench note: what pIC50 did O=C(Nc1cc(C(O)C(F)(F)F)cc2c1C(c1cc(F)ccc1Cl)NC2=O)c1cc(F)cc(C(F)(F)F)c1 (stereo not drawn) show?
Reply | ≥ 7.00

Ask | Bench note: what pIC50 did O=C(Nc1cc(-c2cn3ncnc3cc2F)cc2c1[C@H](c1cc(F)ccc1Cl)NC2=O)c1cc(F)cc(C(F)(F)F)c1 (stereo in doubt) show?
Reply | ≥ 7.00

----------
# MEASUREMENT TARGET: H1047R PIK3CA enzyme (Homo sapiens, UniProt P42336, H1047R)
# METHOD DESCRIPTION: ADP-Glo Biochemical PIK3CA Kinase Assay
IC50: recorded values

These solved cases illustrate the format of a correct answer.
> print(dat)
                                   compound  reported.measurement
1  O=C(Nc1cc(NC(=O)C2COC2)cc2c1C(c1cc(F)ccc1Cl)NC2=O)c1cc(F)cc(C(F)(F)F)c1 (stereo not drawn)              ≤ 100 nM
2  O=C(Nc1cc(-c2cnn(-c3ncccn3)c2)cc2c1C(c1cc(F)ccc1Cl)NC2=O)c1cc(F)cc(C(F)(F)F)c1 (stereo not drawn) [Compound I-1418]              ≤ 100 nM

Consider the additional compound presented here.
Ask | Bench note: what IC50 did Cc1ccccc1C1NC(=O)c2c(C#N)ncc(NC(=O)c3cc(F)cc(C(F)(F)F)c3)c21 (stereo not drawn) show?
Reply | 1000 to 10000 nM

----------
# MEASUREMENT TARGET: H1047R PIK3CA enzyme (Homo sapiens, UniProt P42336, H1047R)
# METHOD DESCRIPTION: ADP-Glo Biochemical PIK3CA Kinase Assay
READOUT: IC50

These solved cases illustrate the format of a correct answer.
COMPOUND	READOUT	REPORTED MEASUREMENT
O=C(Nc1cccc2c1C(c1ccnc(O)c1)NC2=O)c1cc(F)cc(C(F)(F)F)c1 (centres unmarked) [Compound I-658]	IC50	10 to 100 µM
O=C1N[C@@H](c2cc(F)ccc2Cl)c2c(NC(=O)N3C[C@](O)(C(F)(F)F)c4cc(F)ccc43)cc(-n3ncccc3=O)cc21 (single isomer, unassigned) [Compound I-2533]	IC50	1 to 10 µM
N#Cc1ccccc1C1NC(=O)c2cccc(NC(=O)c3nsc4ccccc34)c21 (centres unmarked) [Compound I-197]	IC50	1 to 10 µM

Ask | Bench note: what IC50 did Cn1cc(-c2cc(NC(=O)c3cc(F)cc(C(F)(F)F)c3)c3c(n2)C(=O)N[C@H]3c2cc(F)ccc2Cl)ccc1=O [Compound I-588] show?
Reply | ≤ 0.1 µM

Ask | Bench note: what IC50 did O=C1N[C@H](c2cc(F)ccc2Cl)c2c(NC(=O)N3C[C@H](O)c4cc(F)ccc43)cc(-c3ccc(=O)n(C(F)F)c3)cc21 (single isomer, unassigned) [Compound I-2448] show?
Reply | ≤ 0.1 µM

Ask | Bench note: what IC50 did O=C(Nc1cc(-c2ccnc(C(F)F)c2)cc2c1[C@@H](c1cc(F)ccc1Cl)NC2=O)c1cc(F)cc(C(F)(F)F)c1 [Compound I-2002] show?
Reply | 1 to 10 µM

Ask | Bench note: what IC50 did Cn1nccc1C(F)c1cc(NC(=O)c2cc(F)cc(C(F)(F)F)c2)c2c(c1)C(=O)NC2c1cc(F)ccc1Cl (mixture of isomers) [Compound I-1379] show?
Reply | ≤ 0.1 µM

Ask | Bench note: what IC50 did O=C(Nc1cc(OC2CN(C(=O)C(F)(F)F)C2)cc2c1C(c1cc(F)ccc1Cl)NC2=O)c1cc(F)cc(C(F)(F)F)c1 (racemic) [Compound I-1320] show?
Reply | 0.1 to 0.5 µM

Ask | Bench note: what IC50 did O=C(Nc1cc(-c2cn3ccnc3cn2)cc2c1[C@@H](c1cc(F)ccc1Cl)NC2=O)c1cc(F)cc(C(F)(F)F)c1 [Compound I-1329] show?
Reply | 1 to 10 µM
